testedOn: Cytochrome P450 3A4 (Homo sapiens, UniProt P08684)
Sequence (P08684 whole entry): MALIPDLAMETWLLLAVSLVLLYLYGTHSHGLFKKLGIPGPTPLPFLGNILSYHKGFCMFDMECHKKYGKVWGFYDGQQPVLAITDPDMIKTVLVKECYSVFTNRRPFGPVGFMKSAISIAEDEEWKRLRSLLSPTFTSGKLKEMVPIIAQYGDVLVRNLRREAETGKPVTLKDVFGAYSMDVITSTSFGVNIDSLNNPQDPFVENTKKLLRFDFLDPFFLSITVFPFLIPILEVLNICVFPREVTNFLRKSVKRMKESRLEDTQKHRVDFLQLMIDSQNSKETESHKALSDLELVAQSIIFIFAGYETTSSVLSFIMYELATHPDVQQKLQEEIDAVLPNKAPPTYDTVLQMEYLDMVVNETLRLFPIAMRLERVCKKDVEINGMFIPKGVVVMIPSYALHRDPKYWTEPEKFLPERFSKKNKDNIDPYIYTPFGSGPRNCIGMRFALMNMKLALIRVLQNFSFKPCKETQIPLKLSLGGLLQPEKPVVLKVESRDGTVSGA
assay: Inhibition of human CYP3A4
measurementKind: pKi
Answers are plain numbers, as −log10 of the molar value.

The examples below pair each entry with its known result.
// field: pKi; key: `Cn1cnc(-c2cccnc2)c1` ; value = 3.88

// field: pKi; key: `NCc1ccc(-c2ccccc2)s1` ; value = 4.02

// field: pKi; key: `Cc1csc(-c2cccnc2)n1` ; value = 4.64

// field: pKi; key: `NCc1ccc(-c2cccnc2)o1` ; value = 4.63

// field: pKi; key: `CC(=O)SCc1ccc(-c2cccnc2)o1` ; value = 5.82

Would you mind giving pKi for every molecule in the list below?
1. c1cncc(-c2c[nH]cn2)c1
2. CNCC#Cc1cccnc1
3. NCc1ccc(-c2ccccc2)o1
4. SCc1ccc(-c2cccnc2)o1

1. 4.15
2. 3.60
3. 4.20
4. 5.51

----------
Tested on: CYP2A6 over CYP2C19
assay: Selectivity for CYP2A6 over CYP2C19
condition: human
measurementKind: selectivity ratio
Answers are plain numbers.

Would you mind giving selectivity ratio for every compound in the list below?
1. Cc1cscc1-c1ccccc1
2. CC(=O)SCc1ccc(-c2cccnc2)o1
3. CNCC#Cc1cccnc1

1: 32.3; 2: 4.6; 3: 6.1

Would you mind giving selectivity ratio for every compound in the list below?
1. NCc1ccc(-c2ccccc2)s1
2. CSCc1ccc(-c2cccnc2)o1

1: 1.4; 2: 8.8

----------
System: CYP2A6 over CYP2C9
assay: Selectivity for CYP2A6 over CYP2C9
condition: human
For each record, write down the corresponding selectivity ratio.
Numbers only.

Would you mind giving selectivity ratio for every molecule in the list below?
1. NCc1ccc(-c2ccccc2)o1
2. CNCc1ccc(-c2cccnc2)o1
3. Cc1csc(-c2cccnc2)n1
4. c1cncc(-c2cc[nH]n2)c1

1.5
48
12.6
13.4

Would you mind giving selectivity ratio for every molecule in the list below?
1. NCc1ccc(-c2cccnc2)o1
2. c1cncc(-c2c[nH]cn2)c1
3. CNCC#Cc1cccnc1
4. c1cncc(-c2ccsc2)c1
5. Cc1cscc1-c1ccccc1
6. c1cncc(-c2ccc(C3SCCS3)o2)c1
7. NCc1ccc(-c2ccccc2)s1
8. NCc1cc(-c2cccnc2)n[nH]1

1: 43; 2: 28; 3: 2.3; 4: 69; 5: 33.9; 6: 0.1; 7: 0.8; 8: 83.4

----------
assay: Stability in human liver microsome
condition: microsomes
For each record, write down the corresponding half-life.
Numbers only, in min.

The examples below pair each entry with its known result.
// field: half-life; key: `NCc1ccc(-c2cccnc2)s1` ; value = 39

// field: half-life; key: `CSCc1ccc(-c2cccnc2)o1` ; value = 59

// field: half-life; key: `NCc1ccc(-c2ccccc2)s1` ; value = 84

// field: half-life; key: `Cc1cscc1-c1ccccc1` ; value = 74

// field: half-life; key: `SCc1ccc(-c2cccnc2)o1` ; value = 119

Would you mind giving half-life for every molecule in the list below?
1. NCc1ccc(-c2ccccc2)o1
2. Cc1csc(-c2cccnc2)n1

1: 37; 2: 36

----------
testedOn: Cytochrome P450 2B6 (Homo sapiens, UniProt P20813)
Sequence (P20813 whole entry): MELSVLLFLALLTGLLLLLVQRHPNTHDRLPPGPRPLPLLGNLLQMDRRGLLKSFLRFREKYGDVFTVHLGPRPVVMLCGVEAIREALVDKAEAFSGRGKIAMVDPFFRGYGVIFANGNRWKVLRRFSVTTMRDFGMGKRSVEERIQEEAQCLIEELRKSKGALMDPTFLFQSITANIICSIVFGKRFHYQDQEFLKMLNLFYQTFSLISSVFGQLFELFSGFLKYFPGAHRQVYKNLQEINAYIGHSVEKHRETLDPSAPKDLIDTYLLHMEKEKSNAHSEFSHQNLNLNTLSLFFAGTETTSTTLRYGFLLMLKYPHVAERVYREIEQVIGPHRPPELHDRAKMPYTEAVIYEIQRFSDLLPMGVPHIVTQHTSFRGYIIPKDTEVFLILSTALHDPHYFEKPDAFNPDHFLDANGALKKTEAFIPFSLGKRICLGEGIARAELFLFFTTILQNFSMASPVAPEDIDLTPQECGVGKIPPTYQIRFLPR
assay: Inhibition of human CYP2B6
For each record, write down the corresponding Ki.
Numbers only, in µM.

The examples below pair each entry with its known result.
// field: Ki; key: `NCc1cc(-c2cccnc2)no1` ; value = 33.7

// field: Ki; key: `c1cncc(-c2c[nH]cn2)c1` ; value = 51.5

// field: Ki; key: `NCc1cc(-c2cccnc2)n[nH]1` ; value = 33.2

// field: Ki; key: `Cc1cscc1-c1ccccc1` ; value = 5.1

Would you mind giving Ki for every molecule in the list below?
1. c1cncc(-c2cc[nH]n2)c1
2. c1cncc(-c2ccc(C3SCCS3)o2)c1
3. CC(=O)SCc1ccc(-c2cccnc2)o1
4. SCc1ccc(-c2cccnc2)o1
5. Cc1ccsc1-c1ccc(F)nc1

71.5
5.3
0.9
1.1
5.9

Would you mind giving Ki for every molecule in the list below?
1. NCc1ccc(-c2cccnc2)o1
2. c1ccc(-c2ccsc2)cc1
3. CN(C)CC#Cc1cccnc1
4. Cc1csc(-c2cccnc2)n1
5. Cn1cnc(-c2cccnc2)c1
6. CNCC#Cc1cccnc1

1. 95.5
2. 14
3. 192
4. 43.5
5. 73
6. 60

----------
For each record, write down the corresponding pKi.
testedOn: UniProtKB P11712
Sequence (P11712 whole entry): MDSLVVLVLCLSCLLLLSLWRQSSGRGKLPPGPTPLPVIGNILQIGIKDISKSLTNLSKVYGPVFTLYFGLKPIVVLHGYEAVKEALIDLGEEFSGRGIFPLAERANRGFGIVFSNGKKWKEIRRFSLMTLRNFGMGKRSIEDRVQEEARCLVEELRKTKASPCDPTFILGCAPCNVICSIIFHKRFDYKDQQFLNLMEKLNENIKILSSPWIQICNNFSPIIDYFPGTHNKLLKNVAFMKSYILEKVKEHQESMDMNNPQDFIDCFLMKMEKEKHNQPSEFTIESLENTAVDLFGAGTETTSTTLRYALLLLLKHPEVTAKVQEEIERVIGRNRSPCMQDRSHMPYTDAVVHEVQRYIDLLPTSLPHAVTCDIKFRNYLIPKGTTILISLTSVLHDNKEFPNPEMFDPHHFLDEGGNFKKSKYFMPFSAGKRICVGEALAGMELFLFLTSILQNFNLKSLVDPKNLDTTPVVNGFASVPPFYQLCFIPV
One number for each entry, as −log10 of the molar value.

The examples below pair each entry with its known result.
// field: pKi; key: `CN(C)Cc1ccc(-c2cccnc2)s1` ; value = 3.99

// field: pKi; key: `Cc1cscc1-c1cccnc1` ; value = 4.21

// field: pKi; key: `c1ccc(-c2ccsc2)cc1` ; value = 3.95

Would you mind giving pKi for every compound in the list below?
1. NCc1ccc(-c2ccccc2)o1
2. SCc1ccc(-c2cccnc2)o1
3. CSCc1ccc(-c2cccnc2)o1
4. c1cncc(-c2ccc(C3SCCS3)o2)c1
5. CNCc1ccc(-c2cccnc2)s1

1: 6.05; 2: 6.40; 3: 4.85; 4: 5.89; 5: 4.47

----------
Tested on: CYP2A6 over CYP2B6
assay: Selectivity for CYP2A6 over CYP2B6
measurementKind: selectivity ratio
Give bare numbers.

// field: selectivity ratio; key: `c1cncc(-c2c[nH]cn2)c1` ; value = 69

New cases:
// field: selectivity ratio; key: `Cc1csc(-c2cccnc2)n1` ; value = 10.6

----------
Lab note: pKi readings collected with Cytochrome P450 2C19 (Homo sapiens) for the following compounds.
Sequence (P33261 whole entry): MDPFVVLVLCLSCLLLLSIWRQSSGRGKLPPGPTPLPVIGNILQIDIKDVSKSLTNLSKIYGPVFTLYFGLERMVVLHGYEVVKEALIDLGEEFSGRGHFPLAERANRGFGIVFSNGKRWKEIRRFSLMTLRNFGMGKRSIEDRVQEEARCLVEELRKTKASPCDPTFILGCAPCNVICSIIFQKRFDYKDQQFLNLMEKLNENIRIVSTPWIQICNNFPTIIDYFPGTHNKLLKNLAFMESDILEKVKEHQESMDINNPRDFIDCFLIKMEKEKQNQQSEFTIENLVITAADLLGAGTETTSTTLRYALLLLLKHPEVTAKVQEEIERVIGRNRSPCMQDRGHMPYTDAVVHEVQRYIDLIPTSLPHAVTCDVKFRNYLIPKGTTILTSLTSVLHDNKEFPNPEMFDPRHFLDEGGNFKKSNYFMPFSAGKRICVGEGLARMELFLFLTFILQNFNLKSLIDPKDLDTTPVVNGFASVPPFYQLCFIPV
Give bare numbers, as −log10 of the molar value.

Would you mind giving pKi for every compound in the list below?
1. NCc1cc(-c2cccnc2)no1
2. NCc1cc(-c2cccnc2)n[nH]1
3. NCc1ccc(-c2ccccc2)s1

1. 4.56
2. 4.38
3. 6.05

Would you mind giving pKi for every compound in the list below?
1. Cn1cnc(-c2cccnc2)c1
2. CN(C)Cc1ccc(-c2cccnc2)o1
3. NCc1ccc(-c2ccccc2)o1
4. c1cncc(-c2ccc(C3SCCS3)o2)c1
5. NCc1ccc(-c2cccnc2)o1

[4.21, 4.10, 4.39, 6.15, 4.96]

----------
assay: Stability in mouse liver microsome
condition: liver microsomes
Response field class: string, computed from recorded half-life by ranges LOW: < 0.8 h; MEDIUM: ≥ 0.8 h and < 3 h; HIGH: ≥ 3 h

Would you please look over these solved cases?
Looking at `NCc1cc(-c2cccnc2)n[nH]1` , which class would you pick?
MEDIUM

Looking at `CC(=O)SCc1ccc(-c2cccnc2)o1` , which class would you pick?
LOW

Looking at `CNCC#Cc1cccnc1` , which class would you pick?
MEDIUM

Looking at `NCc1ccc(-c2cccnc2)o1` , which class would you pick?
LOW

Looking at `c1ccc(-c2ccsc2)cc1` , which class would you pick?
MEDIUM

Looking at `c1cncc(-c2c[nH]cn2)c1` , which class would you pick?
HIGH

Looking at `Cc1ccsc1-c1cccnc1` , which class would you pick?
LOW

Looking at `CN(C)Cc1ccc(-c2cccnc2)s1` , which class would you pick?
HIGH

New cases:
Looking at `NCc1cc(-c2cccnc2)no1` , which class would you pick?
HIGH

Looking at `Cn1cnc(-c2cccnc2)c1` , which class would you pick?
HIGH

Looking at `c1cncc(-c2ccc(C3SCCS3)o2)c1` , which class would you pick?
LOW

Looking at `c1cncc(-c2cc[nH]n2)c1` , which class would you pick?
MEDIUM

----------
testedOn: Cytochrome P450 2A6 (Homo sapiens)
Sequence (P11509 whole entry): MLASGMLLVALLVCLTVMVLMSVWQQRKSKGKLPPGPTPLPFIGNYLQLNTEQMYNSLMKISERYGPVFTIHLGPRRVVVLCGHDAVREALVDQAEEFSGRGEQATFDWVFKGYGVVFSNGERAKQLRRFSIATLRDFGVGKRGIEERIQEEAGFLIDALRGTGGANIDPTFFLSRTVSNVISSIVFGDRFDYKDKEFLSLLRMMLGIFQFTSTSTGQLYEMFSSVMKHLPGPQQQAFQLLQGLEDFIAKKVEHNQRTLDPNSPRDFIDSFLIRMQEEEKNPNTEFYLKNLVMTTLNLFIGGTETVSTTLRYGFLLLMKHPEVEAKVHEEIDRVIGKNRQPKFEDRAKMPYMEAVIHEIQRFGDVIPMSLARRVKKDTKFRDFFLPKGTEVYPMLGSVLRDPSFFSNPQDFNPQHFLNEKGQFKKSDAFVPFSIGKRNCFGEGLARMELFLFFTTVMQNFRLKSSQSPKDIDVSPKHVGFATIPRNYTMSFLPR
For each record, write down the corresponding Ki.
One number for each entry, in µM.

The examples below pair each entry with its known result.
Record `NCCCc1cccnc1` has Cytochrome P450 2A6 (Homo sapiens) Ki equal to 6.6

Record `NCc1cc(-c2cccnc2)n[nH]1` has Cytochrome P450 2A6 (Homo sapiens) Ki equal to 0.3

Record `NCc1ccc(-c2ccccc2)o1` has Cytochrome P450 2A6 (Homo sapiens) Ki equal to 0.6

Record `c1cncc(-c2c[nH]cn2)c1` has Cytochrome P450 2A6 (Homo sapiens) Ki equal to 0.8

Record `Cc1csc(-c2cccnc2)n1` has Cytochrome P450 2A6 (Homo sapiens) Ki equal to 4.1

Would you mind giving Ki for every compound in the list below?
1. CN(C)Cc1ccc(-c2cccnc2)s1
2. c1ccc(-c2ccsc2)cc1
3. CNCC#Cc1cccnc1

1: 66.5; 2: 3.3; 3: 2.7

Origin of the recorded values: ChEMBL document CHEMBL1137358
